test system: human APOE RNA; experiment: Dose-dependent reduction of human APOE RNA in HepG2 cells, electroporation, 20,000 cells per well, average of GAPDH- and PPIA-normalized results (Example 4, Table 12); assay type: cell-based; settings: HepG2, 20,000 cells per well, approximately 24 hours
Strand notation (5' to 3'): a small letter for the sugar, then the base; units joined by * are phosphorothioate-linked, units joined directly phosphodiester-linked; [ ] holds rarer units or linkages, { } end groups; capitals alone tell only the bases. [ms] = mesyl phosphoramidate linkage; e = 2'-O-(2-methoxyethyl) (MOE); k = constrained ethyl (cEt); [5mC] = 5-methylcytosine; d = 2'-deoxy (DNA)
Assign IC50 to each entry below.
Please state the value followed by its unit.

Each substance below has a recorded value; state its IC50.
1. Aes^mCeoTeoTesGesGksTdsGdzAdzAdzTds^mCdsTdsTdsTdsAdzTksTksAesAe (eA*e[5mC]eTeT*eG*kG*dT*dG[ms]dA[ms]dA[ms]dT*d[5mC]*dT*dT*dT*dA[ms]kT*kT*eA*eA) [Compound No. 1757576]
2. 1778131: modified oligonucleotide complementary to human APOE RNA (eA*e[5mC]eTeTeGkG*dT*dG[ms]dA[ms]dA*dT*d[5mC]*dT*dT*dT*dA[ms]kTkT*eA*eA; antisense) [compound 1778131]
3. 1785617: modified oligonucleotide complementary to human APOE RNA (k[5mC]*dT[ms]dT[ms]kG*dG[ms]kT*dG[ms]dA[ms]dA[ms]dT[ms]d[5mC]*dT*dT*dT*dA*dT*kT*kA*dA[ms]kA; antisense) [compound 1785617]
4. 1746809 (k[5mC]*dT[ms]kT*dG[ms]kG*dT[ms]dG[ms]dA[ms]dA[ms]dT*d[5mC]*dT*dT*dT*dA[ms]dT*dT[ms]kA*kA*kA; antisense) [Compound 1746809]

Result:
1. 370 nM
2. 290 nM
3. 260 nM
4. 310 nM

All figures here come from patent US20250353873A1.
